These measurements were taken from the supplement of paper PMC11451515.

Measured AUC of viability dose-response curve of individual entries
# Tested on: SEM cells
# Experimental protocol: AUC of viability dose-response curve (% viability x log10 dose units); higher = less sensitive
# Conditions: RPMI 5 mM glucose + 10% dialyzed FBS; 48 h
When you answer, write just the number.

Some entries whose results are on file:
Molecule: CN(C)c1ccc2cc(C(=O)N[C@@H](CCCNC(=N)CCl)C(=O)NCc3ccccc3)ccc2c1
Observed: 444

Molecule: C[C@@H]1C[C@H]2[C@@H]3CC\C4=C\C(=O)\C=C/[C@]4(C)[C@@]3(Cl)[C@@H](O)C[C@]2(C)[C@@]1(OC(=O)C5=CC=CO5)C(=O)CCl
Observed: 222

Molecule: CC(C)(C)c1cc(C(=O)O)c(NC(=O)Nc2ccc3[nH]ncc3c2)s1
Observed: 440

Molecule: CN1CC(=O)\N=C1\NC(=O)NC2=CC(=CC=C2)Cl
Observed: 457

Molecule: CCNc1cc(NC2CCC(O)CC2)nc(Nc2ccc3c(ccn3Cc3ccccc3)c2)n1 (stereo not given)
Observed: 466

Prompt: Please give the measured AUC of viability dose-response curve for this molecule: Cc1c(C(=O)Nc2cccc(C(F)(F)F)c2)cc(-c2ccccc2)n1CCCN1CCOCC1
Completion: 446

Prompt: Please give the measured AUC of viability dose-response curve for this molecule: COC1=CC2=C(C=C1OC)[C@H]3[C@@H](CO2)OC4=C(C=CC5=C4\C=C/C(C)(C)O5)C3=O
Completion: 326

Prompt: Please give the measured AUC of viability dose-response curve for this molecule: Cc1ncc([N+](=O)[O-])n1CCO
Completion: 449

Prompt: Please give the measured AUC of viability dose-response curve for this molecule: Cc1cn(CCN2CCN(c3ccccc3-c3cc(C#N)cc(C(=O)NCCCN4CCCC4)c3)CC2)c2ccccc12
Completion: 424

Prompt: Please give the measured AUC of viability dose-response curve for this molecule: CN(C)C[C@@H]1CC[N]2C=C(C3=C2C=CC=C3)C/4=C(/C(=O)NC4=O)C5=C[N](CCO1)C6=C5C=CC=C6
Completion: 393

Prompt: Please give the measured AUC of viability dose-response curve for this molecule: Cc1[nH]c(/C=C2\C(=O)Nc3ccc([S+](=O)([O-])Cc4c(Cl)cccc4Cl)cc32)c(C)c1C(=O)N1CCC[C@@H]1CN1CCCC1
Completion: 361

Prompt: Please give the measured AUC of viability dose-response curve for this molecule: CC[C@@]1([C@@H]2O[C@@H]([C@H]3O[C@@](O)(CO)[C@H](C)C[C@@H]3C)C[C@@H]2C)CC[C@H]([C@]2(C)CC[C@]3(C[C@H](O)[C@@H](C)[C@@H]([C@@H](C)[C@@H](OC)[C@H](C)C(=O)[O-])O3)O2)O1
Completion: 343

----------
# Tested on: P12-Ichikawa
# Experimental protocol: cell viability relative to DMSO control; higher = less cytotoxic
# Conditions: RPMI 5 mM glucose + 10% dialyzed FBS; 48 h; 15.4 µM
Measurement type: cell viability

Some entries whose results are on file:
Compound: CC(C)NCC(O)COc1ccc(CCOCC2CC2)cc1 (stereo unspecified)
Target system: P12-Ichikawa
Observed: 107%

Compound: N[C@@H](CC(=O)N1CCn2c(nnc2C(F)(F)F)C1)Cc1cc(F)c(F)cc1F
Target system: P12-Ichikawa
Observed: 91.3%

Compound: Oc1cc(O)cc(/C=C/c2ccc(O)c(O)c2)c1
Target system: P12-Ichikawa
Observed: 84.4%

Compound: COC(=O)[C@@H](N)CCCNC(=N)N[N+](=O)[O-]
Target system: P12-Ichikawa
Observed: 92%

Prompt: Kindly state the measured cell viability obtained for CN(C)CCN(Cc1ccc(Cl)cc1)c1ccccn1.Cl with P12-Ichikawa.
Completion: 78.8%

Prompt: Kindly state the measured cell viability obtained for NC(=O)Nc1cc(-c2ccc(CN3CCOCC3)cc2)sc1C(N)=O with P12-Ichikawa.
Completion: 21.2%

----------
# System: P12-Ichikawa
# Experimental protocol: cell viability relative to DMSO control; higher = less cytotoxic
# Conditions: RPMI 5 mM glucose + 10% FBS; 48 h; 0.569 µM
Measured cell viability of individual entries
Could you give me the number in %? Just the number is fine.

Compound: NCC(=O)Nc1ccc(-n2nc(C(F)(F)F)cc2-c2ccc3c(ccc4ccccc43)c2)cc1
Target system: P12-Ichikawa
Scale unit: %
cell viability: 105

Compound: O=C1NC(=O)/C(=C/c2cccc(C(F)(F)F)c2)S1
Target system: P12-Ichikawa
Scale unit: %
cell viability: 98.6

Prompt: Please give the measured cell viability for this compound: COc1cc(OC)c(NC(=O)Nc2cc(C)on2)cc1Cl
Completion: 95.5

Prompt: Please give the measured cell viability for this compound: COC1=CC=C(C=C1)C2CC(=N/N2C3=CC=C(C=C3)[S+](N)([O-])=O)\C4=CC=CC=C4 (stereo not given)
Completion: 99.8

Prompt: Please give the measured cell viability for this compound: CN(C)CCCNC(=O)c1ccc(-c2cc(O)c3ncccc3c2)cc1
Completion: 93.3

Prompt: Please give the measured cell viability for this compound: CN(C)CCN(Cc1ccc(Cl)cc1)c1ccccn1.Cl
Completion: 90.4

Prompt: Please give the measured cell viability for this compound: N[C@@H](CC(=O)N1CCn2c(nnc2C(F)(F)F)C1)Cc1cc(F)c(F)cc1F
Completion: 92.8

Prompt: Please give the measured cell viability for this compound: Cc1cc(Cl)ccc1OCCCC(=O)NO
Completion: 99.4

Prompt: Please give the measured cell viability for this compound: Oc1cc(O)cc(/C=C/c2ccc(O)c(O)c2)c1
Completion: 105

Prompt: Please give the measured cell viability for this compound: CC(C)c1ccccc1Cc1cc(C(=O)Nc2ccc([S+](=O)([O-])c3ccccc3C(C)(C)C)cc2)c(O)c(O)c1O
Completion: 107

Prompt: Please give the measured cell viability for this compound: N\C1=N\C2=C(N=C[N]2COC(CO)CO)C(=O)N1
Completion: 124

Prompt: Please give the measured cell viability for this compound: O=C(CCCCCCC(=O)Nc1ccccc1)NO
Completion: 111

Prompt: Please give the measured cell viability for this compound: CCCCCCCCc1ccc(CCC(N)(CO)CO)cc1
Completion: 104

Prompt: Please give the measured cell viability for this compound: CN(C)c1ccc2cc(C(=O)N[C@@H](CCCNC(=N)CCl)C(=O)NCc3ccccc3)ccc2c1
Completion: 122

Prompt: Please give the measured cell viability for this compound: CC(NCc1ccc2c(c1)[nH]/c(=N\C(=O)c1ccc(-c3cn[nH]c3)s1)n2CC(C)(C)O)C(C)(C)C (stereo not given)
Completion: 102

Prompt: Please give the measured cell viability for this compound: COc1ccc2c(c1OC)CN1CCc3cc4c(cc3C1C2)OCO4 (stereo not given)
Completion: 86.7

Prompt: Please give the measured cell viability for this compound: CCCCCCCCCCCCCCCCCCOP(=O)([O-])OC1CC[N+](C)(C)CC1
Completion: 113

Prompt: Please give the measured cell viability for this compound: C[C@@H]1CC[C@@]2(OC1)OC1CC3C4CC=C5CC(O)CCC5(C)C4CCC3(C)C1[C@@H]2C (stereo not given in full)
Completion: 104

Prompt: Please give the measured cell viability for this compound: COC1(C[S+]([O-])c2ccccc2)CCN(CCc2c[nH]c3ccc(F)cc23)CC1 (stereo not given)
Completion: 78.9

Prompt: Please give the measured cell viability for this compound: NC(=O)Nc1cc(-c2ccc(CN3CCOCC3)cc2)sc1C(N)=O
Completion: 11.5

Prompt: Please give the measured cell viability for this compound: CN[C@@H]1C[C@H]2O[C@@](C)([C@@H]1OC)n1c3ccccc3c3c4c(c5c6ccccc6n2c5c31)C(=O)N[C@H]4O
Completion: 44.5

Prompt: Please give the measured cell viability for this compound: O=C(NNC(=O)c1ccc(CN[S+](=O)([O-])c2ccc(F)c(Cl)c2)cc1)c1ccccc1
Completion: 106

----------
# System: P12-Ichikawa
# Experimental protocol: cell viability relative to DMSO control; higher = less cytotoxic
# Conditions: HPLM + 10% dialyzed FBS; 48 h; 46.1 µM
Hi! Could you tag entries with cell viability below 90% as y, and those at or above as n? Much appreciated.

Molecule: Cc1[nH]c(/C=C2\C(=O)Nc3ccc([S+](=O)([O-])Cc4c(Cl)cccc4Cl)cc32)c(C)c1C(=O)N1CCC[C@@H]1CN1CCCC1
Assigned class: y
--
Molecule: CN[C@@H]1C[C@H]2O[C@@](C)([C@@H]1OC)n1c3ccccc3c3c4c(c5c6ccccc6n2c5c31)C(=O)N[C@H]4O
Assigned class: y
--
Molecule: CCNc1cc(NC2CCC(O)CC2)nc(Nc2ccc3c(ccn3Cc3ccccc3)c2)n1 (stereo unspecified)
Assigned class: n
--
Molecule: COC1(C[S+]([O-])c2ccccc2)CCN(CCc2c[nH]c3ccc(F)cc23)CC1 (stereo unspecified)
Assigned class: n
--
Molecule: Nc1nc(OCc2ccccc2)c2nc[nH]c2n1
Assigned class: n

Prompt: I'd appreciate it if you could check whether Oc1cc(O)cc(/C=C/c2ccc(O)c(O)c2)c1 has cell viability smaller than 90%.
Completion: y

Prompt: I'd appreciate it if you could check whether Cc1ccc(C(=O)c2cc(O)c(O)c([N+](=O)[O-])c2)cc1 has cell viability smaller than 90%.
Completion: n

Prompt: I'd appreciate it if you could check whether CN(C)CCCNC(=O)c1ccc(-c2cc(O)c3ncccc3c2)cc1 has cell viability smaller than 90%.
Completion: y

Prompt: I'd appreciate it if you could check whether NC(=O)Nc1cc(-c2ccc(CN3CCOCC3)cc2)sc1C(N)=O has cell viability smaller than 90%.
Completion: y

Prompt: I'd appreciate it if you could check whether COc1ccc2c(c1OC)CN1CCc3cc4c(cc3C1C2)OCO4 (stereo unspecified) has cell viability smaller than 90%.
Completion: y

Prompt: I'd appreciate it if you could check whether C=CCn1c(=O)c2cnc(Nc3ccc(N4CCN(C)CC4)cc3)nc2n1-c1cccc(C(C)(C)O)n1 has cell viability smaller than 90%.
Completion: y

Prompt: I'd appreciate it if you could check whether COc1cc2ncnc(Nc3cccc(Br)c3)c2cc1OC has cell viability smaller than 90%.
Completion: n

Prompt: I'd appreciate it if you could check whether O=C1NC(O)CCN1[C@@H]1O[C@H](CO)[C@@H](O)[C@H]1O (stereo partly specified) has cell viability smaller than 90%.
Completion: n

Prompt: I'd appreciate it if you could check whether CC(C)(C)c1cc(C(=O)O)c(NC(=O)Nc2ccc3[nH]ncc3c2)s1 has cell viability smaller than 90%.
Completion: y
